Exercise: for every item that follows, state its recorded interaction score.
Biological target: T1, 4H932-bN
T1 chain: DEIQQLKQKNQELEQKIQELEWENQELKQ
Experiment: two-hybrid library CCNG1;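 further: natural log of median RNA to DNA barcode read ratio; higher means stronger binding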
Answers are plain numbers.

binder	interaction score
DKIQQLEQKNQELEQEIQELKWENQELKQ [4H2444-bN]	0.018
DEIQQLKQKIQELEQENQELKWENQELKQ [4H796-bN]	0.298
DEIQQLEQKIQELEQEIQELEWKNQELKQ [4H264-bN]	-0.218
DEIQQLEQEIQELEQKNQELEWKNQELKQ [4H56-bN]	-0.791
DEIQQLKQENQELKQENQELKWEIQELKQ [4H730-bN]	-0.353

For each of the items listed, what is its interaction score?
1. DKNQQLEQKIQELEQKNQELEWKIQELEQ [4H3381-bN]
2. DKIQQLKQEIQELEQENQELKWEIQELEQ [4H2585-bN]

Completion:
-0.998
-1.52
